- Test system: SR leukemia
- assay_overview: NCI tumour cell line growth inhibition, 48 h
Where a SMILES comes first, the peptide text is derived from it. [ ]: non-standard residue; d: D form. The star is where a group is joined. NMeF = CN[CH](Cc1ccccc1)C(=O)O; NMeV = CN[CH](C(=O)O)C(C)C; Boc = CC(C)(C)OC(=O)*
property_label: TGI

[[record]]
compound = "CCN(CC)C(=O)Cn1c(C)cc2ccccc21"
property_label = "TGI"
measured_value = "> 100 µM"

[[record]]
compound = "CC(C)C(NC(=O)OC(C)(C)C)C(=O)N(C)C(Cc1ccccc1)C(=O)N(C)C(C(=O)O)C(C)C (stereo not drawn) (Boc-Val-[NMeF]-[NMeV]-OH; configuration not given here)"
property_label = "TGI"
measured_value = "> 100 µM"

[[record]]
compound = "COC(C(O)CO)C(O)C(O)C(=O)NNc1ccccc1 (configuration not stated)"
property_label = "TGI"
measured_value = "> 100 µM"

[[record]]
compound = "COc1ccc(Nc2c3ccccc3nc3occc23)cc1"
property_label = "TGI"
measured_value = "> 100 µM"

[[record]]
compound = "O=C(N/N=C/c1ccccc1)c1c(-c2cccnc2)cnc2ccccc12"
property_label = "TGI"
measured_value = "> 100 µM"

[[record]]
compound = "COc1cc2ncnc(Nc3ccc(C)c(O)c3)c2cc1OC"
property_label = "TGI"
measured_value = "> 25 µM"

[[record]]
compound = "O=C1OC(C(O)CO)C(=O)C1=O (configuration not stated)"
property_label = "TGI"
measured_value = "> 10000 µM"

[[record]]
compound = "O=C(O)c1ccc([N+](=O)[O-])c2cc3cnccc3nc12"
property_label = "TGI"
measured_value = "> 100 µM"

[[record]]
compound = "O=C1C2C3C=C4c5ccccc5N(c5ccccc5)C4(C2C(=O)N1Cc1ccccc1)C1C(=O)N(Cc2ccccc2)C(=O)C31 (configuration not stated)"
property_label = "TGI"
measured_value = "> 100 µM"

[[record]]
compound = "COC1(OC)C2(Cl)C(Cl)=C(Cl)C1(Cl)C1C=CC=CC12 (configuration not stated)"
property_label = "TGI"
measured_value = "> 100 µM"

[[record]]
compound = "Nc1cc2[nH]c(=O)c(=O)[nH]c2cc1N"
property_label = "TGI"
measured_value = "> 100 µM"

[[record]]
compound = "Cc1cc(S(=O)(=O)Nc2nnc(-c3ccccc3)c(-c3ccccc3)n2)c(SCC(N)=O)cc1Cl"
property_label = "TGI"
measured_value = "47.6 µM"

